tested-target: DNA gyrase (Escherichia coli, UniProt P0AES4+P0AES6)
Construct: purchased Inspiralis, UK
Sequence (P0AES4 whole entry, one chain of several): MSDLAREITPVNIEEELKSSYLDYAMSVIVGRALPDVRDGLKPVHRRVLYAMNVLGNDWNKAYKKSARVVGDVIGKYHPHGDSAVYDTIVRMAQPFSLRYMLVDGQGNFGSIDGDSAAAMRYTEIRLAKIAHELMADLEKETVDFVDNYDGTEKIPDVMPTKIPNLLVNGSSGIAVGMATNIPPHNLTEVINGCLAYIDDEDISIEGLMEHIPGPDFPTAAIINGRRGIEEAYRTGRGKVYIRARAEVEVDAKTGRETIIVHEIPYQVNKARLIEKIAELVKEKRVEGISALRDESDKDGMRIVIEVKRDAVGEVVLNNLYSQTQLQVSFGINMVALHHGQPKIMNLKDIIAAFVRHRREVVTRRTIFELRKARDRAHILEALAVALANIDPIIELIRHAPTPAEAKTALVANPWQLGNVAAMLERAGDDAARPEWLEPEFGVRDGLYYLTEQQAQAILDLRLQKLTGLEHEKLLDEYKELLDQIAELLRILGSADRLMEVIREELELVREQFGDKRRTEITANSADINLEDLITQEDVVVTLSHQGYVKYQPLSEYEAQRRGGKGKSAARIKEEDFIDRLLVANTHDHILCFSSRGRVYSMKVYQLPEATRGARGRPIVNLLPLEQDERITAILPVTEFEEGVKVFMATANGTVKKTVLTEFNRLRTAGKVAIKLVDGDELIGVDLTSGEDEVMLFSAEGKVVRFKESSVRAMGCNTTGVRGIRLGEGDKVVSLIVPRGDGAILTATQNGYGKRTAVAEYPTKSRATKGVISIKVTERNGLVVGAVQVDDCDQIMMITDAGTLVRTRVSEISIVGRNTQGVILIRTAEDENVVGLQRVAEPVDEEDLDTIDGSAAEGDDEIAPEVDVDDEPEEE
test-name: DNA gyrase supercoiling assay (E. coli)
Assay type: biochemical
condition-set: single concentration (200, 100 or 50 μM), in duplicate, versus the positive control (vehicle)
Where a name gives a salt, the structure may show the parent alone.
test-readout: % inhibition DNA gyrase

• O=C(NCCCN1CCN(c2nccc3ncccc23)CC1)c1cccnc1 [Compound 43, hydrochloride] = n/a (n/a = not active)
• Cc1cc2ccccc2c(N2CCN(CCCNC(=O)c3cccnc3)CC2)n1 [Compound 21, hydrochloride] = n/a (n/a = not active)
• O=c1cc(NC[C@H](O)[C@@H](O)C2CCN(c3nccc4ccc(F)cc34)CC2)c2ccccc2o1 (racemic) [Compound 128, hydrochloride] = n/a (n/a = not active)
